Molecular target: T1, human ROR1 Frizzled domain (hROR1-Fz) (human, UniProt Q01973 165-305)
T1 construct: Acro Biosystems, made in HEK293
T1 sequence (Q01973 other isoform, or with tags, fused parts or gaps): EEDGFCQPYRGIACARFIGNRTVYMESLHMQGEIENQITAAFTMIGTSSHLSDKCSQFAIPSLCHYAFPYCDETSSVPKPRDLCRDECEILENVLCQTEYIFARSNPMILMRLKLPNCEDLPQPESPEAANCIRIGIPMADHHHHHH
Assay: SPR Biacore, IgG on anti-Fc, ROR1-Fz analyte
PARAMETER: koff (s⁻¹)
Give bare numbers, in s⁻¹.

Here is how some binders turned out for koff.
{"BINDER": "SRP2196-B09 (antibody, V domains shown, His/FLAG-tagged IgG1; also called Antibody 160) VH: EVQLVESGGGLVQPEGSLRLSCAASGFNITEYYIHWVRQAPGKGLEWVGYISPNSGSTYYADSVKGRFTISADTSKNTAYLQMNSLRAEDTAVYYCARDSRRYVRSWDYWGQGTLVTVSS VL: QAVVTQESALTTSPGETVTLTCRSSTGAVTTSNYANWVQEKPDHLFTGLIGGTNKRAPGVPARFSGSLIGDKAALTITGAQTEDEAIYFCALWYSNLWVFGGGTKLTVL", "RESULT": 0.000427}
{"BINDER": "SRP2196-B10 (antibody, V domains shown, His/FLAG-tagged IgG1; also called Antibody 167) VH: EVQLVESGGGLVQPGGSLRLSCAASGFNITGYYIHWVRQAPGKGLEWVGSITPLSGATSKADSVKGRFTISADTSKNTAYLQMNSLRAEDTAVYYCARDSRRYIRSWDYWGQGTLVTVSS VL: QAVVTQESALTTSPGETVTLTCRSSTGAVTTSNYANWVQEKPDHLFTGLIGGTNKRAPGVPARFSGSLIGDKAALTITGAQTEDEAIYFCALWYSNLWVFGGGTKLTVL", "RESULT": 0.000334}

I would be grateful if you could provide koff for each of the following entries.
1. SRP2196-A04 (antibody, V domains shown, His/FLAG-tagged IgG1) VH: EVQLVESGGGLVQPGGSLRLSCAASGFNISPYYIHWVRQAPGKGLEWVGQIYPISGHTYQADSVKGRFTISADTSKNTAYLQMNSLRAEDTAVYYCARESRRYVGPFGYWGQGTLVTVSS VL: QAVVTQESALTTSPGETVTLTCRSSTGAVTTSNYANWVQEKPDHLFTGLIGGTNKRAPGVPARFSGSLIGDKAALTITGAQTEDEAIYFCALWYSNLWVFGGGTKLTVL
2. SRP2196-A03 (antibody, V domains shown, His/FLAG-tagged IgG1; also called Antibody 150) VH: EVQLVESGGGLVQPGGSLRLSCAASGFNITQYHIHWVRQAPGKGLEWVGYISPNSGSTHEADSVKGRFTISADTSKNTAYLQMNSLRAEDTAVYYCARDSRRYVRGWDYWGQGTLVTVSS VL: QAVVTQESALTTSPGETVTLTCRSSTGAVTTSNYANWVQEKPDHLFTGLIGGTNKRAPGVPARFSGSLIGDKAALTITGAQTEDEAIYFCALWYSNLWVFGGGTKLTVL

Output line:
1. 0.000343
2. 0.000275
